Biological target: T1, prefusion Hendra virus (HeV) F protein (Hendra virus, reference strain …)
T1 chain: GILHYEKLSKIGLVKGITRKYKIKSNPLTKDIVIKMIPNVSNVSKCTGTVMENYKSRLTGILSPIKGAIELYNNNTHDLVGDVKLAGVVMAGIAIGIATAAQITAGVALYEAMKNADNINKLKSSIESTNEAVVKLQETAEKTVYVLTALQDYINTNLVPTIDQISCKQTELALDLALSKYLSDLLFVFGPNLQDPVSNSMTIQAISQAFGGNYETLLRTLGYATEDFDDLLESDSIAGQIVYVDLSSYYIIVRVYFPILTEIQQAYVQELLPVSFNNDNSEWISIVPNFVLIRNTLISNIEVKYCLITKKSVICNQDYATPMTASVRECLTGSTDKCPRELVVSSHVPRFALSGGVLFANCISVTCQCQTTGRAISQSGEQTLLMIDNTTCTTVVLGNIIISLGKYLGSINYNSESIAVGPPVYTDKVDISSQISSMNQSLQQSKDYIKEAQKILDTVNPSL
Assay: BLI
Details: both partners purified
MEASURED ATTRIBUTE: binding result

>>> reported_result("Fab 2B12 (Fab, V domains shown) V domain 1: EVQLVESGGGLVQPKGSLKLSCAASGFIFNTYAMHWVRQAPGKGLEWVARIRSKSSNYATYYADSVKDRFTISRDDSQSMLYLQMNNLKTEDTAMYYCVREGGYYFDYWGQGTTLTFSA V domain 2: DIVMSQSPSSLAVSVGEKVTMSCKSSQSLLHVSNQKNYLAWYQQKPGQSPKLLIYWASTRESGVPDRFTGSGSGTDFTLTISSVKAEDLAVYYCQQYYSYPWPFGGGTKLKSN")
"binds"
